Experiment: counter assay for TAg ATPase ADP read-out – biochemical, ADP-Hunter, fluorescence, counter-screen (AID 2501);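 note: purified T antigen ATPase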
Conditions: series mostly up to 100 µM
The whole screen tested about 2,200 compounds, of which about 1,200 (55%) were called active. No cut-off is given here; in the data, nearly all actives have IC50 up to about 92 µM. The set was probably picked from earlier hits. The list shows a part of the results.
Outcome codes: active, inactive

- compound: "CCOc1cc(/C=N/NC(=O)CCc2n[nH]c(=O)[nH]c2=O)ccc1O"
  classification: "active"
- compound: "NC(=O)/C(=C/c1ccco1)C(N)=S"
  classification: "inactive"
- compound: "COc1cc(/C=N/n2c(-c3n[nH]c4c3CCC4)n[nH]c2=S)cc(OC)c1O"
  classification: "active"
- compound: "O=c1cc(CSc2ccc(Cl)cc2)[nH]c2[nH]n(-c3ccccc3)c(=O)c12"
  classification: "active"
- compound: "COc1cc(/C=C2\\SC(=S)N(NS(=O)(=O)c3ccccc3)C2=O)ccc1O"
  classification: "active"
- compound: "COCCCNc1nnc(Cc2ccc(Cl)cc2)c(=O)[nH]1"
  classification: "inactive"
- compound: "COc1cnc(-c2ccccn2)nc1Oc1ccc(Cl)c2ccccc12"
  classification: "inactive"
- compound: "CSc1cccc(NC(=O)CN2C(=O)c3ccccc3S2(=O)=O)c1"
  classification: "inactive"
- compound: "Cc1c(Br)c(=O)oc2c(Br)c(O)c(O)cc12"
  classification: "active"
- compound: "Nc1ccc(-c2nc3cc(N)ccc3n2CCO)cc1"
  classification: "active"
- compound: "O=C(O)c1ccc(-n2nc(-c3ccccc3)c3ccccc3c2=O)cc1"
  classification: "inactive"
- compound: "CCOC(=O)c1c(NC(=O)c2ccc(S(=O)(=O)N(C)CC3CCCO3)cc2)sc2c1CC(C)(C)NC2(C)C (centres undefined)"
  classification: "inactive"
- compound: "CS(=O)(=O)c1ccc(NC(=O)CCN2C(=O)C3CCCCC3C2=O)cc1 (centres undefined)"
  classification: "inactive"
- compound: "O=C(O)c1ccc(COc2ccccc2C=C2C(=O)c3ccccc3C2=O)cc1"
  classification: "inactive"
- compound: "COc1cc(/C=N/NC(=O)CNc2n[nH]c(=O)[nH]c2=O)ccc1O"
  classification: "active"
- compound: "N#C/C(=C\\c1ccc(O)c([N+](=O)[O-])c1)C(=O)NCc1ccccc1"
  classification: "inactive"
- compound: "O=C(CC(Sc1ccc(Br)cc1)C(=O)O)c1ccc(Br)cc1 (centres undefined)"
  classification: "inactive"
- compound: "O=c1c2c(-c3ccco3)csc2nc(SCc2cn3cccnc3n2)n1-c1ccccc1"
  classification: "inactive"
- compound: "CN(C)c1ccc(N=c2sc3ccccc3n2C)cc1"
  classification: "active"
- compound: "O=C([C@H](Cc1ccccc1)NS(=O)(=O)c1ccc(Cl)cc1)N1CC[C@@]2(O)CCCC[C@H]2C1"
  classification: "active"
- compound: "O=C(Nc1ccc(O)cc1)/C(=C\\c1cccs1)NC(=O)c1ccccc1"
  classification: "active"
- compound: "Cc1c(CCC(=O)NCCCC(=O)O)c(=O)oc2cc3oc4c(c3cc12)CCCC4"
  classification: "inactive"
- compound: "N#C/C(=C\\c1ccc(O)c(O)c1)C(=O)NCc1ccccc1"
  classification: "active"
- compound: "CC1CCCN(c2ccc(N)cc2C(N)=O)C1 (centres undefined)"
  classification: "active"
- compound: "CN(C)c1ccc(Nc2nc(N)c([N+](=O)[O-])c(N3CCOCC3)n2)cc1"
  classification: "active"
- compound: "N#C/C(=C\\c1ccccc1OCc1ccc(C(=O)O)cc1)C(=O)Nc1ccc(O)cc1"
  classification: "active"
- compound: "COc1cccc(C(=O)N(Cc2cc3cc(C)ccc3[nH]c2=O)C(C)C)c1"
  classification: "inactive"
- compound: "Cc1cc2c(n1-c1ccc(C(=O)O)cc1)CCCCC2"
  classification: "inactive"
- compound: "O=C(Nc1ccc(O)cc1)/C(=C/c1ccco1)NC(=O)c1ccccc1"
  classification: "active"
- compound: "N#C/C(=C\\c1ccc(O)c(O)c1)C(=O)Nc1cccc2ncccc12"
  classification: "active"
- compound: "O=C(CCn1c(=O)oc2cc(Cl)ccc21)Nc1ccc(O)cc1"
  classification: "active"
- compound: "Cc1ccc2c(c1)C1C=CCC1C(C(=O)O)N2 (centres undefined)"
  classification: "inactive"
- compound: "O=C(Nc1ccc(O)cc1)/C(=C\\c1ccncc1)NC(=O)c1ccccc1"
  classification: "active"
- compound: "CCCC1Nc2ccc(C(=O)O)cc2C2C=CCC12 (centres undefined)"
  classification: "inactive"
- compound: "O=C(O)CSc1cc(NS(=O)(=O)c2ccc(Cl)cc2)c2ccccc2c1O"
  classification: "inactive"
- compound: "O=C(/C=C/c1ccc(Br)o1)NCc1ccccc1"
  classification: "inactive"
- compound: "COC(=O)C1=C(O)/C(=C\\c2ccc(CNS(=O)(=O)c3ccccc3)o2)N=C1C"
  classification: "inactive"
- compound: "Cc1[nH]n(-c2ccccc2)c(=S)c1C=Nc1ccc([N+](=O)[O-])cc1"
  classification: "active"
- compound: "COc1cc(/C=N/n2c(-c3n[nH]c4c3CCC4)n[nH]c2=S)ccc1O"
  classification: "active"
- compound: "NC(=O)c1sc2nnc(-c3ccccc3)c(-c3ccccc3)c2c1N"
  classification: "inactive"
- compound: "O=[N+]([O-])c1ccc(C2(O)CN(c3ccccc3)C3=[N+]2CCS3)cc1 (centres undefined)"
  classification: "inactive"
- compound: "COc1cc(O)ccc1C(=O)CCc1ccc(O)cc1"
  classification: "active"
- compound: "O=C(NN1C(=O)/C(=C/c2cc([N+](=O)[O-])ccc2O)SC1=S)c1ccccc1O"
  classification: "inactive"
- compound: "O=C(NN1C(=O)/C(=C/C=C/c2ccco2)SC1=S)c1ccccc1O"
  classification: "inactive"

Measured values drawn from PubChem BioAssay AID2501 for this set.
